target: CDK7/cyclinH/MAT1 trimeric complex (Homo sapiens (Human), UniProt P50613); assay: In vitro CDK7 assay, potency of irreversible covalent inhibitors (kinact/KI); conditions: read-out: CDK7 (20 nM enz.) (kinact/ KI, M^−1*s^−1), 20 nM enz.
Sequence (P50613 whole entry): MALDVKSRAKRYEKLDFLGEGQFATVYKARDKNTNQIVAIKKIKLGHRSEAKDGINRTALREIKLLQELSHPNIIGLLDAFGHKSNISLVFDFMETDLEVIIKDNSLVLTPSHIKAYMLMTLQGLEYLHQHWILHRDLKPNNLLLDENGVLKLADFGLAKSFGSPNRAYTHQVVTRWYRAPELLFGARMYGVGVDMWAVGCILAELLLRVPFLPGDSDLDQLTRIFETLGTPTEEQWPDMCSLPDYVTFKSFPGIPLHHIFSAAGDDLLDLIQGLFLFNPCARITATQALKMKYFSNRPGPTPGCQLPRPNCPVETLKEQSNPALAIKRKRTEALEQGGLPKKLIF
Sequence (P51946 whole entry partner): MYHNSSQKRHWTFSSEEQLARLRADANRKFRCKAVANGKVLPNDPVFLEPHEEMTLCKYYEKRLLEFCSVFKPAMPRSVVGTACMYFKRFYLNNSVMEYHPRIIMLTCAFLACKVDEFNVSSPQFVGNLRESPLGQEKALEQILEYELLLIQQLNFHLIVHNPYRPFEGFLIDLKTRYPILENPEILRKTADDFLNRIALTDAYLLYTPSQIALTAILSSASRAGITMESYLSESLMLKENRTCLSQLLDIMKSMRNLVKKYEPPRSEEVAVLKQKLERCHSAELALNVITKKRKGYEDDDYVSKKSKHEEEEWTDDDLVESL
Sequence (P51948 whole entry partner): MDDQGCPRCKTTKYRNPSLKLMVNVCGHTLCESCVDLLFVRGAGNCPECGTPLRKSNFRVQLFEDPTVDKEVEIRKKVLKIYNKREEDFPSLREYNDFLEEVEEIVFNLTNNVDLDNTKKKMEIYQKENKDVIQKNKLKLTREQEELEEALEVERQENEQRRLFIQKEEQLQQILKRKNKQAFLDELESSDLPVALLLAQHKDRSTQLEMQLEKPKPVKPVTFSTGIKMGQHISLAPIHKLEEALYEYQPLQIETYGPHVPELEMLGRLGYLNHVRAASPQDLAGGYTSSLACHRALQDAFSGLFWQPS
attribute_measured: kinact/KI

CC#CC(=O)N1CCC(N2CCN(c3cc(C)c4c(c3)Nc3ncnc(N5CCS(=O)(=O)CC5)c3[C@@H](C)O4)CC2)CC1 :: 14100 M⁻¹ s⁻¹
C=CC(=O)N1CC(N2CCC(c3cc4c(c(C)n3)O[C@@H](C)c3c(ncnc3N3CCS(=O)(=O)CC3)N4)CC2)C1 (single isomer, unassigned) :: 551 M⁻¹ s⁻¹
C#Cc1cc(C2CN([C@H]3CCN(C(=O)C=C)C3)C2)cc2c1O[C@H](C)c1c(ncnc1N1CCS(=O)(=O)CC1)N2 :: 168 M⁻¹ s⁻¹
C=CC(=O)N1CC(N2CC[C@@H](c3cc4c(c(C)n3)OCc3c(ncnc3N3CCS(=O)(=O)CC3)N4)C2)C1 :: 330 M⁻¹ s⁻¹
C=CC(=O)N1CC[C@@H](N2CC(c3cc4c(c(C)n3)OCc3c(ncnc3N3CCS(=O)(=O)CC3)N4)C2)C1 (single isomer, unassigned) :: 209 M⁻¹ s⁻¹
C=CC(=O)N1CC(N2CCC(c3ccc4c(c3)Nc3ncnc(N5CCOCC5)c3CO4)CC2)C1 :: 234 M⁻¹ s⁻¹

Numbers sourced from patent US20240109912A1.
